- TESTED_ON: T1, 成熟型ヒトVEGF-D(Hisタッグ付加、二量体、参考例3) (human, UniProt O43915 93-201)
- T1 construct: also called human VEGF-D; not shown: His tag
- T1 sequence: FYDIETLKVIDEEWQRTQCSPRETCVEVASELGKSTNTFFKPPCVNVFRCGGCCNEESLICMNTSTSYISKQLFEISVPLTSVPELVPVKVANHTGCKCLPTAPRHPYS
- ASSAY_PROCEDURE: competition cell ELISA, inhibition of human VEGF-D binding to human VEGFR-3 CHO cells, against chimeric VE48
QUANTITY_MEASURED: binding result

BINDER | REPORTED_RESULT
ヒト化VE199抗体(H鎖:VE199HA、L鎖:VE199LA) (antibody, human IgG1, kappa, V domains shown, also called VE199HALA) VH: QVQLVQSGPEVKKPGASVKVSCKASGYTFTGYNMHWVRQAPGQGLEWMGYIDPYNGDTYYNQKFQDRVTLTVDKSTSTAYMELSSLRSEDTAVYYCIRAGYYAMDYWGQGTLVTVSS VL: DIVMTQTPLSLPVTPGEPASISCRSSQSLVHINGNTYLHWYLQKPGQSPQLLIYKVSNRFSGVPDRFSGSGSGTDFTLKISRVEAEDVGVYFCSQGTHVPRTFGGGTKVEIKR | binds
ヒト化抗体VE48抗体(48H17/48L6) (antibody, V domains shown, The light chain is VE48L6; also called VE48H17/VE48L6) VH: QVTLKESGPALVKPTQTLTLTCTFSGFSLSTYGMGVGWIRQPPGKALEWLANIWWEDDKYYNPVLRSRLTISKDTSKNQVVLTMTNMDPVDTATYYCVQVTNPFVFWGEGTLVTVSS VL: DIVMTQTPLSLPVTPGEPASISCRSSQSLVHINGNTYLHWYLQKPGQSPQLLIYKVSNRFSGVPDRFSGSGSGTDFTLKISRVEAEDVGVYFCSQSTHVPWTFGGGTKVEIKR | binds
